Measured Relative to UNC0638 UNC Heavy accompanies every entry in the list below.
- target or system: T1, G9a and GLP (Homo sapiens, UniProt Q96KQ7+Q9H9B1)
- T1 sequence (Q96KQ7 2-1210 limits assumed): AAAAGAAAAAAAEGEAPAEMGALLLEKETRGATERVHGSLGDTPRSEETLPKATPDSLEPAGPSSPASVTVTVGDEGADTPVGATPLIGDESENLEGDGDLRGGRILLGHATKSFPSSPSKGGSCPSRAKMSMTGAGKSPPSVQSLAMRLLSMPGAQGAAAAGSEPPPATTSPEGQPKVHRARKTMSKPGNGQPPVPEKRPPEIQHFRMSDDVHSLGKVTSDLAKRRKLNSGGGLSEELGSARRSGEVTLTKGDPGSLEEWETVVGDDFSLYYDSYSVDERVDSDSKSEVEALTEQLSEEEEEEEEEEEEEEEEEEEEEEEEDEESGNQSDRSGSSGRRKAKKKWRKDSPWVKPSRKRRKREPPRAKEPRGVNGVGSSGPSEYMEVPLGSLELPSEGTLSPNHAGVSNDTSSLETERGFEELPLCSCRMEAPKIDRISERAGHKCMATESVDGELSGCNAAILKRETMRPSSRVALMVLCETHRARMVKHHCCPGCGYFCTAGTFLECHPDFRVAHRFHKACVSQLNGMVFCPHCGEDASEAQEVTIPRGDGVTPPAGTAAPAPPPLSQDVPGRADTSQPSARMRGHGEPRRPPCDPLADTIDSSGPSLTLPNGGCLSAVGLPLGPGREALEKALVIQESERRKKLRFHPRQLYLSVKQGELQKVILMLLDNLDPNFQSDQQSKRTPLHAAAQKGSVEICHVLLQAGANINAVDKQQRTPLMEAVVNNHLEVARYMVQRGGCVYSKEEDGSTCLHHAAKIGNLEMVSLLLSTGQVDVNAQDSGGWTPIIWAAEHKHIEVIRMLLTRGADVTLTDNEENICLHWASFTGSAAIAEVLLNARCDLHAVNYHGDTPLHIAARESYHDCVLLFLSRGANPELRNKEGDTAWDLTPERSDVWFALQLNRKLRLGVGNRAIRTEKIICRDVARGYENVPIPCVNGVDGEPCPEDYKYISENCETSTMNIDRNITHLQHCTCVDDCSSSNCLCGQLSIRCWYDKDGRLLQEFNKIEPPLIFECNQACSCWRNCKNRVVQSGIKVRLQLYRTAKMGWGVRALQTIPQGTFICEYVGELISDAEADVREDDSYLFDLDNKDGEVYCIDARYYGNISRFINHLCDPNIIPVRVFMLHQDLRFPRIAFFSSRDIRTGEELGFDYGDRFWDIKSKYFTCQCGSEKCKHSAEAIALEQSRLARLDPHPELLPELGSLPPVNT
- T1 sequence (Q9H9B1 2-1298 limits assumed): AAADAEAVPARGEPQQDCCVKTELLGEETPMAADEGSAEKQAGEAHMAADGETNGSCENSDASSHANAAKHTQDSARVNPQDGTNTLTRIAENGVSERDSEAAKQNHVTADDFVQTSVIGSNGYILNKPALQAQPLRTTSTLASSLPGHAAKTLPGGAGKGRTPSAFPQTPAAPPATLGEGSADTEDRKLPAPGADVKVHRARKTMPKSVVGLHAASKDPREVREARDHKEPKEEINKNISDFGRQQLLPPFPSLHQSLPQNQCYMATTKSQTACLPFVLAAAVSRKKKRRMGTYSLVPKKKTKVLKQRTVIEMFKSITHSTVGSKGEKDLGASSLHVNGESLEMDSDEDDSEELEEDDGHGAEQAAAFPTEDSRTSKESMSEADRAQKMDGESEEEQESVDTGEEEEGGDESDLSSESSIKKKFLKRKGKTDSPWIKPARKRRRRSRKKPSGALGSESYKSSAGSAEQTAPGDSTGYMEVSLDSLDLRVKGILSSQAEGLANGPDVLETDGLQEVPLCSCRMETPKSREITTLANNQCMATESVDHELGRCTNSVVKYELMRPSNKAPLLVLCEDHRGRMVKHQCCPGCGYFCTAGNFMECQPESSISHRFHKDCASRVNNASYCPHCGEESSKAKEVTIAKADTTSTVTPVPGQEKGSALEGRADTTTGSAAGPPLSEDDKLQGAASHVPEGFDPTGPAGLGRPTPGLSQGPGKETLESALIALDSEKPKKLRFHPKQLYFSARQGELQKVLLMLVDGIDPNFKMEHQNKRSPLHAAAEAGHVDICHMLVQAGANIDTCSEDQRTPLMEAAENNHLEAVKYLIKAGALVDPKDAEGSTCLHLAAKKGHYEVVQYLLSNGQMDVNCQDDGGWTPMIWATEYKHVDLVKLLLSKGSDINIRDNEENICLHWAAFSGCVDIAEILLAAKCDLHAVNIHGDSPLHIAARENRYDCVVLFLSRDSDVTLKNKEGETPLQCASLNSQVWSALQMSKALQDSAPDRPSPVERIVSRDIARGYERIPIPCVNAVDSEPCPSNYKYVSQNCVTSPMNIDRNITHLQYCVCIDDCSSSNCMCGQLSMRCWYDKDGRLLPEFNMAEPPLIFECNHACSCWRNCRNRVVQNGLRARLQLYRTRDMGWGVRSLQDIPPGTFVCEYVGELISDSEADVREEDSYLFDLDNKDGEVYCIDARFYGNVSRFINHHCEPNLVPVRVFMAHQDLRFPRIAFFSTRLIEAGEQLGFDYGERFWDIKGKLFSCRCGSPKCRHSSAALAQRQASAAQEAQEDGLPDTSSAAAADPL
- measurement description: Triple SILAC pull-down after UNC0638 treatment of 293T cells, DMSO/UNC0638 ratio of protein captured by 3×MBT;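 also: mass spectrometry (Q-Exactive) SILAC quantitation, DMSO/UNC0638 ratio computed after subtracting 3×MBTD355N mutant pull-down background, only proteins with at least twofold 3×MBT over mutant signal considered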
- Format: cell-based
- Design: endogenous in cells; host or cells: HEK 293T
- test context: SILAC ratio DMSO/UNC0638 of protein pulled down with 3xMBT; UNC0638 in heavy SILAC media
Your answer should be a plain number; it is taken to be in log base 2.

Field: example entries. Status: answers known.
TXN (protein, UniProt P10599 2-105, looked up) Thioredoxin: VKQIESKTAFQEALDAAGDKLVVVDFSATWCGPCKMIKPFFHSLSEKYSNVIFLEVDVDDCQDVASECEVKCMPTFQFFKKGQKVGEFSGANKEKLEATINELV = 0.14
SRP19 (protein, UniProt P09132 1-144, looked up) Signal recognition particle …: MACAAARSPADQDRFICIYPAYLNNKKTIAEGRRIPISKAVENPTATEIQDVCSAVGLNVFLEKNKMYSREWNRDVQYRGRVRVQLKQEDGSLCLVQFPSRKSVMLYAAEMIPKLKTRTQKTGGADQSLQQGEGSKKGKGKKKK = −0.08

Next item in the queue.
The recorded Relative to UNC0638 UNC Heavy for SRP9 (protein, UniProt P49458 2-86, looked up) Signal recognition particle 9 …: PQYQTWEEFSRAAEKLYLADPMKARVVLKYRHSDGNLCVKVTDDLVCLVYKTDQAQDVKKIEKFHSQLMRLMVAKEARNVTMETE is 0.46
